Data origin: ChEMBL document CHEMBL1201862

Measurement target: Short transient receptor potential channel 4 (Mus musculus, UniProt Q9QUQ5)
Sequence (Q9QUQ5 whole entry): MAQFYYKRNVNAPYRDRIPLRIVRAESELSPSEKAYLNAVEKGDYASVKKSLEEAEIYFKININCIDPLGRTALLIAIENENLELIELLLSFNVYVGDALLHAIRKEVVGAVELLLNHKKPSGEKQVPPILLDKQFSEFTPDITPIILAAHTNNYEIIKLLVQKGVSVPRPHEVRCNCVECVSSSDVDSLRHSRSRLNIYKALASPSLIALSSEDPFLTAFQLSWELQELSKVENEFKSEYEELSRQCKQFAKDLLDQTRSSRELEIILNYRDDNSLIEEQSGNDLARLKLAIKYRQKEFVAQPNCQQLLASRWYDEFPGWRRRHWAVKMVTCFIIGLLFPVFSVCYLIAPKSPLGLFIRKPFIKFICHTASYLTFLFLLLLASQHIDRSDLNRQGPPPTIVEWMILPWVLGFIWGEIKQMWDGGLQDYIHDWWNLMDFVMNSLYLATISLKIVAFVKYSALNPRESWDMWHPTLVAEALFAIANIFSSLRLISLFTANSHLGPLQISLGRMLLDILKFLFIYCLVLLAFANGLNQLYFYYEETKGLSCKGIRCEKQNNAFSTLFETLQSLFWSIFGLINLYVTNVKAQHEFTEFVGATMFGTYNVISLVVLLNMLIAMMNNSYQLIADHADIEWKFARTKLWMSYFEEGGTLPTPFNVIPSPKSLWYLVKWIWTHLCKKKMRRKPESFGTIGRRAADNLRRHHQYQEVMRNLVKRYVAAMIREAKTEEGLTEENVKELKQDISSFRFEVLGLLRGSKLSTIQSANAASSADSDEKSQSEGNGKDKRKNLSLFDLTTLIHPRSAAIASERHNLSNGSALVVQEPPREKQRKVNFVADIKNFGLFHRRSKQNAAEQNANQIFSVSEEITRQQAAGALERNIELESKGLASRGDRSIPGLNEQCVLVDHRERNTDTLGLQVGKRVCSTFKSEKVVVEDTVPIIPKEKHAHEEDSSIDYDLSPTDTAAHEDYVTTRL
Test name: mouse TRPC4 channel activators, dose response, cell-based, HEK293 TRPC4/mu-opioid, Fluo-4 calcium (AID 434937)
Type: functional
Calls of active or inactive are those of the source.
Recorded metric: EC50

These solved cases illustrate the format of a correct answer.
- Cc1ccccc1OCC(O)Cn1c(=N)n(Cc2ccccc2)c2ccccc21 (centres undefined): 3350 nM (active)
- COc1ccc(-n2c3c(cc(C(=O)NNc4ccccc4)c2=O)C(=O)CC(C)(C)C3)cc1: 1060 nM (active)
- CC1CC(C)CN(CCCNC(=O)c2nn(C)c3c2CS(=O)(=O)c2ccccc2-3)C1 (centres undefined): 237 nM (active)

# input for lookup
Query string: Which value of EC50 has been reported for COc1ccc(C(CNC(=O)CSc2ccccc2C)N(C)C)cc1 (centres undefined) in the records?
Result string: 237 nM (active)

---

EC50 values by entry
Measurement target: Peroxisome proliferator-activated receptor gamma/Nuclear receptor coactivator 2 (Homo sapiens)
Sequence (P37231 whole entry): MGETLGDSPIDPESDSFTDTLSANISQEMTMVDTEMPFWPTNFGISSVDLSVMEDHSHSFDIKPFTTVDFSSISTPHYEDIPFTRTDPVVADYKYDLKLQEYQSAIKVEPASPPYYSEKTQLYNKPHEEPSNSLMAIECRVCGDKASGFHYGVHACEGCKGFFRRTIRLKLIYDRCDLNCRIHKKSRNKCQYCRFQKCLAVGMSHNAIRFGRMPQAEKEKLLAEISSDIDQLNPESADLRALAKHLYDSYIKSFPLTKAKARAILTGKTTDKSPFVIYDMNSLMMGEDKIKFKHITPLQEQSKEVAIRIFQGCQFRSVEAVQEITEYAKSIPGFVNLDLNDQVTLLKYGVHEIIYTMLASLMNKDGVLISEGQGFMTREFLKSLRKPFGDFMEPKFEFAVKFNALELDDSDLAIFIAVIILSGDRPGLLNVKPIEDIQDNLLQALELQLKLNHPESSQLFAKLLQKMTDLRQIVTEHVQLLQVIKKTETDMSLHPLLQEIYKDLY
Sequence (Q15596 whole entry, further chain): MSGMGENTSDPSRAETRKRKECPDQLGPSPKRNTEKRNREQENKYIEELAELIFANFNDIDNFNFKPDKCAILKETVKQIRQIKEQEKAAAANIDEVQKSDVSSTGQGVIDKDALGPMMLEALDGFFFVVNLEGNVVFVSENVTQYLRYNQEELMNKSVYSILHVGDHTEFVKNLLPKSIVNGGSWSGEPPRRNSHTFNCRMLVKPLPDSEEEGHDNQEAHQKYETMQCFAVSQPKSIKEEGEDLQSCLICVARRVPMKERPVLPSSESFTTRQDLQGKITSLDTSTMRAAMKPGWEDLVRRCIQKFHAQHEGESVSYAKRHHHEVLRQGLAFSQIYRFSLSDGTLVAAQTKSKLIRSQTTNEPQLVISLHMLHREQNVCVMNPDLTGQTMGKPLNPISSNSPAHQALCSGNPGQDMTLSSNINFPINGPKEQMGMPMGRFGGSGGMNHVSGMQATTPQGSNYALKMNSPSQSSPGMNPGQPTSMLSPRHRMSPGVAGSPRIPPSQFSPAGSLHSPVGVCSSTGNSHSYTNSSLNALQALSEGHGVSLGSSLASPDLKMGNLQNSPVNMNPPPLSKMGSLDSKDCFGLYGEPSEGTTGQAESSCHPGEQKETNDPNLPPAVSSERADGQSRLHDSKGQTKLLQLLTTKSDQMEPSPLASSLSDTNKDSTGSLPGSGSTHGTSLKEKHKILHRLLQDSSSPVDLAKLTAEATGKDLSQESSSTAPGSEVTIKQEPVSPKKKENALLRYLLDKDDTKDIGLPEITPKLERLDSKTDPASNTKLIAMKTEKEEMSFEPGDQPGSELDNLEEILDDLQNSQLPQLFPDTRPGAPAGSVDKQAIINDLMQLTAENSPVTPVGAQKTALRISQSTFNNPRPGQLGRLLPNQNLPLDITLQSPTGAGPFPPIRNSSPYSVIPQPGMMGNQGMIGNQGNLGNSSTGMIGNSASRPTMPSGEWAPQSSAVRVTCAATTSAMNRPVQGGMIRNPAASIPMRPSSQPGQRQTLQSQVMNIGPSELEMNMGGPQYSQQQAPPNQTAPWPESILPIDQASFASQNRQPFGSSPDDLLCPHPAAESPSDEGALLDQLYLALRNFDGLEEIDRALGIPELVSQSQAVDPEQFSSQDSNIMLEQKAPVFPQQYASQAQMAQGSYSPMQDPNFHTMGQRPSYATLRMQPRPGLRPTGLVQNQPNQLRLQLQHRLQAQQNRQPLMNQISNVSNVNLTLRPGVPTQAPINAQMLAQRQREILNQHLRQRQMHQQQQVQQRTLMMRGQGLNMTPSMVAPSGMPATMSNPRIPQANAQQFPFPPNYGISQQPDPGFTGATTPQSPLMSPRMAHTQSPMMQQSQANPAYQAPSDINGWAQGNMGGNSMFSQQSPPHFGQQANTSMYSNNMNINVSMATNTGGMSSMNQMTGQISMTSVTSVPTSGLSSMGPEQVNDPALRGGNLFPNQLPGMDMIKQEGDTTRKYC
Test name: TR-FRET dose response biochemical High Throughput Screening assay for agonists of the steroid receptor coactivator 2 (SRC-2) recruitment by the peroxisome proliferator-activated receptor gamma (PPAR gamma): non-selective agonists. [Related pubchem assays: 1297, 1032 ]
Format: functional
Active and inactive are the calls of the source.

• CC(=O)c1sc(NC(=O)C(C)C)nc1C = > 26.5 µM (not active)
• CCn1c(=O)cc(SCC(=O)N2CCN(C3CCCCC3)CC2)c2ccccc21 = > 79.4 µM (not active)
• COC(=O)c1c(C)[nH]c(C(=O)C(C)Sc2nnc(-c3cc(OC)c(OC)c(OC)c3)o2)c1C (stereo not given) = > 79.4 µM (not active)

Query string: Which value of EC50 has been reported for S=c1[nH]nc(-c2ccccc2)o1 in the records?
Result string: 8.1 µM (active)

Query string: Item: COc1ccc(NC(=O)CSc2c3c(nc4ccccc24)CCCC3)c(OC)c1
Result string: 35.4 µM (not active)

---

Measurement target: Heat shock factor protein 1 (Mus musculus, UniProt P38532)
Sequence (P38532 whole entry): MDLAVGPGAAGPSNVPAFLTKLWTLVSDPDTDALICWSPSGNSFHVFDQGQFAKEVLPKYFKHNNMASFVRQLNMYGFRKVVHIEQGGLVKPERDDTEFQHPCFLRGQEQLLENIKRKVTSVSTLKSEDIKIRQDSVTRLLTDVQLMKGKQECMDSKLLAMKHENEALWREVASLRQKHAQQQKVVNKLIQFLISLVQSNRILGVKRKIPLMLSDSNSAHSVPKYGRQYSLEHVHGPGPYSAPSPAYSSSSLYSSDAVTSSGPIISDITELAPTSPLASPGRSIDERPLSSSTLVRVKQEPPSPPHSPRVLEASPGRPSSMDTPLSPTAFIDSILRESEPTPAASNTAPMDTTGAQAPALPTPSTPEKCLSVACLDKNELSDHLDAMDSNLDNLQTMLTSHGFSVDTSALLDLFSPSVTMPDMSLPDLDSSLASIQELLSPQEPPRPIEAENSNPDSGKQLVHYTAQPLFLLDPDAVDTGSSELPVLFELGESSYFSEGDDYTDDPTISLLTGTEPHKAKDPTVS
Test name: inhibition of MG132-induced HSE-luciferase signal, confirmation, cell-based, NIH3T3, luminescence, dose retest (AID 2382);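 further: NIH3T3 fibroblasts with HSF1-driven luciferase reporter stressed by proteasome inhibitor MG132; luminescence from HSF1-driven luciferase expression after 8 hours of MG132 stress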
Format: functional
Activity calls are given as the source filed them.
Recorded metric: EC50

These solved cases illustrate the format of a correct answer.
• COC(=O)c1nn(-c2ccc3c(c2)CCN3C(C)=O)cc1O = 0.665 µM (active)
• Cc1nc2scc(C)n2c(=O)c1S(=O)(=O)N1CCN(c2cccc(C(F)(F)F)c2)CC1 = > 195 µM (not active)
• CC1(C)C=C(c2ccc(C=O)s2)CC(C)(C)N1C=O = > 195 µM (not active)
• COc1ccc(-c2noc(N3CCC(C(=O)NCCCN4CC(C)CC(C)C4)CC3)n2)cc1 (stereo not given) = > 195 µM (not active)

# input for lookup
Query string: Which value of EC50 has been reported for CC(O)c1nc2ccccc2n1Cc1nnc(-c2ccc(Cl)cc2)o1 (stereo not given) in the records?
Result string: > 195 µM (not active)

---

Test name: Luminescence Cell-Based Dose Response HTS to Identify Inhibitors of 5'UTR Stem-Loop Driven Prion Protein mRNA Translation in H4 Neuroglioblastoma Cells. [Related pubchem assays: 1827 (Project Summary), 1813 (Primary HTS)]
Assay type: functional
The source made the active and inactive calls.
Recorded metric: EC50

These solved cases illustrate the format of a correct answer.
- COc1ccc(-c2nn(-c3ccccc3)cc2/C=N/NC(=S)NC(C)C)cc1OC: > 120 µM (not active)
- CC(=O)O[C@@]12CO[C@@H]1C[C@H](O)[C@@]1(C)C(=O)[C@H](O)C3=C(C)[C@@H](OC(=O)[C@H](O)[C@@H](NC(=O)c4ccccc4)c4ccccc4)C[C@@](O)([C@@H](OC(=O)c4ccccc4)C12)C3(C)C (stereo not given in full): > 120 µM (not active)
- COC(=O)c1nn(-c2ccc3c(c2)CCN3C(C)=O)cc1O: 0.29 µM (active)
- Cc1ccnc(NC(=O)CCC(=O)c2cccs2)c1: 2.97 µM (active)

Query string: Which value of EC50 has been reported for CCCCN(CC)S(=O)(=O)c1ccc(C(=O)Nc2nnc(-c3ccccc3Cl)o2)cc1 in the records?
Result string: 12.1 µM (active)

---

Test name: cells
Assay type: functional
Calls of active or inactive are those of the source.
Recorded metric: IC50

Query string: Which value of IC50 has been reported for O=[N+]([O-])c1ncccc1Oc1nc(-c2cccnc2)nc2ccccc12 in the records?
Result string: 1150 nM (active)

Query string: Item: CCOC(=O)COc1cc(O)c2c(=O)cc(-c3ccccc3)oc2c1
Result string: 860 nM (active)

Query string: Item: O=C(CNC(=O)c1ccccc1Cl)N/N=C/c1ccc([N+](=O)[O-])s1
Result string: 36600 nM (active)

Query string: Item: CSC(=N/c1cc(Cl)ccc1Cl)/C(C#N)=C(/O)c1ccco1
Result string: 7460 nM (active)

Query string: Item: COC(=O)COc1ccc2c(=O)c(Oc3ccccc3)c(C)oc2c1
Result string: 2940 nM (active)

---

Measurement target: UniProtKB P41145
Sequence (P41145 whole entry): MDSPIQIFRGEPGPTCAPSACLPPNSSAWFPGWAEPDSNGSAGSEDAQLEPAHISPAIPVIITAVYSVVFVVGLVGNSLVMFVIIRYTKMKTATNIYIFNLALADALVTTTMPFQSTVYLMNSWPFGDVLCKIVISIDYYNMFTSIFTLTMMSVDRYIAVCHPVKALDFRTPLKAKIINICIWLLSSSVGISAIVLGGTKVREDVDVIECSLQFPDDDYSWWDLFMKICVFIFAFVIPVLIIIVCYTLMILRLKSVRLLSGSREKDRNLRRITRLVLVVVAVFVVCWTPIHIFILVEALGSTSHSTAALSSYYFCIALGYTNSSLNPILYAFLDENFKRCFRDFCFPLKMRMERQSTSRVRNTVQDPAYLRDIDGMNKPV
Format: functional
Recorded metric: EC50 (µM)
Hi! Could you send only the number? It should be in µM, unit omitted.

Query string: Which value of EC50 has been reported for CC(Sc1nnc(CN2CCCC2)n1Cc1ccccc1)C(=O)Nc1ccc(F)cc1 (stereo unspecified) in the records?
Result string: 3.82

---

Measurement target: Phosphomannomutase 2 (Homo sapiens, UniProt O15305)
Sequence (O15305 whole entry): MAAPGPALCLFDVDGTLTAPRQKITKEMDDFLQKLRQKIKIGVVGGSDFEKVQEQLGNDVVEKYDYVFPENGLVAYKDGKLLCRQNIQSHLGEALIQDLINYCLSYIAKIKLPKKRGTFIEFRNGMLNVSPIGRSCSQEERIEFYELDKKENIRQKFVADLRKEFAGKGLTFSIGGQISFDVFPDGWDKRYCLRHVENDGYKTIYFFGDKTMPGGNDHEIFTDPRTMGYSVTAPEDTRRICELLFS
Test name: Counter screen SAR assay for PMM2 inhibitors via a fluorescence intensity assay. [Related pubchem assays (depositor defined):AID1545, AID1574]
Calls of active or inactive are those of the source.
// classify into 1 (active), 0 (inactive)

Query string: How did this test come out for Cc1c(Cl)cccc1-n1sc2cc([N+](=O)[O-])cc(OCC(F)(F)F)c2c1=O ?
Result string: 1

---

IC50 values by entry
Measurement target: Genome polyprotein (dengue virus type 2, UniProt P29990)
Test name: Dengue-2 NS5 methyltransferase inhibitors, primary screen, biochemical, confirmation dose response (AID 588689)
Assay type: functional
The source made the active and inactive calls.

These solved cases illustrate the format of a correct answer.
* CCOC(=O)c1c(C)oc2c1cc(NS(=O)(=O)c1ccc(C(=O)O)cc1)c1ccccc12 | 73.8 µM (active)
* O=[N+]([O-])c1ccc(O)c(/C=N/c2ccc3c(c2)OCO3)c1 | 41.9 µM (active)
* O=C1NC(=O)N(c2ccc(F)cc2)C(=O)/C1=C/c1ccc(N2CCOCC2)cc1 | > 100 µM (active)
* Cc1cccc(NC2=C(NC(=O)c3ccccc3)C(=O)c3ccccc3C2=O)c1 | 58.4 µM (active)
* O=C(O)c1cccc2cccc(-c3c4ccc(=O)c(O)c-4oc4c(O)c(O)ccc34)c12 | 14.6 µM (active)

# input for lookup
Query string: Which value of IC50 has been reported for O=c1c(Sc2ccccc2)c(C(F)(F)F)[nH]n1-c1ccccc1 in the records?
Result string: 59.5 µM (active)

---

Measurement target: Polyadenylate-binding protein 1 (Homo sapiens)
Sequence (P11940 whole entry): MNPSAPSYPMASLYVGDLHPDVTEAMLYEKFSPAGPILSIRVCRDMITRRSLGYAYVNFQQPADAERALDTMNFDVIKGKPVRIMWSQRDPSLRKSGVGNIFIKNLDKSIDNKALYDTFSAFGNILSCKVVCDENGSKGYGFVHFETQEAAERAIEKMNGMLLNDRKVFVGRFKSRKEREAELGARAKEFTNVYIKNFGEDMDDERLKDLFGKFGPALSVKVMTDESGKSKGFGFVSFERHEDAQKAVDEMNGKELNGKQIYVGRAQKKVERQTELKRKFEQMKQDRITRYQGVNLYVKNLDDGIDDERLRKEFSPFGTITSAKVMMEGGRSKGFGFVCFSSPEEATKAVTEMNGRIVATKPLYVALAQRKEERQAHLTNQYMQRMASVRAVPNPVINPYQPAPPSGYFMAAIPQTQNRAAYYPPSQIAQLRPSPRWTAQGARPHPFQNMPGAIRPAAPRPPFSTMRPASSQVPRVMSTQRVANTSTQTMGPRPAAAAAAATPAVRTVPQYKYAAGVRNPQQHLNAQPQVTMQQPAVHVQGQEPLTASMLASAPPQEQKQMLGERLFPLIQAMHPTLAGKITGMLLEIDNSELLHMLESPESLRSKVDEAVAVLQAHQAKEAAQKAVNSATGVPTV
Test name: PABP1 MLLE–PAM2 binding inhibitor potency, dose response, biochemical, fluorescence polarization, FITC-PAM2 peptide (AID 602259)
Type: functional
Recorded conditions: read-out: IC50_Mean
Activity calls are given as the source filed them.
// classify into Y = active, N = inactive

- N#C/C(=N/Nc1ccc(OC(F)(F)F)cc1)C(N)=S: N
- Cc1ccc(/C=C2\SC(=S)N(c3c(C)n(C)n(-c4ccccc4)c3=O)C2=O)cc1: N
- CCOc1ccc(NC(=S)N=Nc2c(O)[nH]c3ccccc23)cc1: N
- COc1cccc(-c2nc(=S)c3c(o2)CCCC3)c1: N
- COC(=O)c1cc(NC(S)=Nc2cc(Cl)cc(Cl)c2)cc(C(=O)OC)c1: N
- CNc1ccc2nc3ccccc3[n+](C)c2c1.[O-][Cl+3]([O-])([O-])[O-]: Y

Query string: How did this test come out for CCCN(CC(=O)Nc1ccccc1C)C(=O)COC(=O)CSc1ccc([N+](=O)[O-])cc1 ?
Result string: N

---

Test name: Luminescence Cell-Based Dose Retest to Confirm Inhibitors of Cancer Stem Cells. [Related pubchem assays (depositor defined):AID2717, AID2721]
Type: functional
Recorded conditions: Homo sapiens
The source made the active and inactive calls.
AC50 values by entry

* CCCCCc1nc2c(c(=O)c3ccccc3n2C)c(=O)n1C1CCCCCC1 | 3.56 µM (active)

Query string: Which value of AC50 has been reported for O=C(O)c1ccccc1C(=O)NNc1ccc(Cl)cc1 in the records?
Result string: 0.983 µM (active)

Query string: Item: N#CC1=C(SCC(=O)c2ccc(Br)cc2)N=C2CCCC(O)=C2C1c1ccco1 (stereo unspecified)
Result string: 2.13 µM (active)

Query string: Item: Cc1ccc(S(=O)(=O)Nc2ccc(NC(=O)Nc3cccc(C(F)(F)F)c3)cc2)cc1
Result string: 1.36 µM (active)

Query string: Item: CCN(CC)CCCN=C(S)N1CCN(c2nc(-c3ccccc3)cs2)CC1
Result string: 3.77 µM (active)

Query string: Item: Cc1ccc(C(=O)Cn2nnc3c(sc4nc5c(c(-c6ccccc6)c43)CCC5)c2=O)cc1
Result string: 0.462 µM (active)

Query string: Item: CCN1CCN(c2cc(C(C)(C)C)nc3c(-c4ccccc4)c(C)nn23)CC1
Result string: 5.68 µM (active)

Query string: Item: C=CCn1/c(=N/C(=O)c2ccc(S(=O)(=O)N3CCCc4ccccc43)cc2)sc2cc(S(N)(=O)=O)ccc21
Result string: 2.01 µM (active)
